- Tested on: NUGC-3
- Protocol Description: Growth inhibition of human NUGC3 cells at 10 uM after 48 hrs by SRB assay; values are per cent of control
- Test Context: NUGC-3, 48 h
The reader will find reported growth, % of control at 10 µM values listed item by item below.
Answer with a number only, understood to be in %.

Known results for molecules:
[[record]]
cpd_smiles = "C=CC[N+](C)(C)CCN(C)S(=O)(=O)CCCCCCCCCCCCCC"
experimental_system = "NUGC-3"
metric_name = "growth, % of control at 10 µM"
experimental_value = -8.4

[[record]]
cpd_smiles = "C=CC[N+](CC)(CC)CCN(C)S(=O)(=O)CCCCCCCCCCCCCCCC"
experimental_system = "NUGC-3"
metric_name = "growth, % of control at 10 µM"
experimental_value = -20.2


Prompt: What is its growth, % of control at 10 µM for NUGC-3? Entry: CCCCCCCCCCCCCCS(=O)(=O)N(C)CC[N+](CC)(CC)CC
Completion: -1.3

Prompt: growth, % of control at 10 µM of CCCCCCCCCCCCCCCCS(=O)(=O)N(C)CC[N+](C)(CC)CC on NUGC-3?
Completion: 1.2
